Assay Explanation: Peptide binding to POPG LUVs studied by ITC
Reported Conditions: POPG LUVs into peptide, PBS, one site model, once or twice
Value Type: TΔS
# number then unit; no other words

Recorded result, RRDWDWRRDWRR [Peptide R6DW3] , TΔS: 25.9 kJ/mol

For reference, reported TΔS for RRWWRRWWR [aR5W4] stands at 20.9 kJ/mol

Note to self: TΔS recorded for RRRRRRRRR [Peptide R9] was 31 kJ/mol

---

# Lookup of reported Percentage of structural elements: Turn keyed by entry
Assay Explanation: Peptide secondary structure by ATR-FTIR in the absence or presence of heparin
Assay type: physicochemical
Reported Conditions: ATR-FTIR, 1679 cm^-1; +Hep (8.3 µM heparin, peptide per ITC stoichiometry)
Number in %, nothing else.

Use the examples below as a reference point.
Sequence Text: RRWRRRRWW [nR6W3]
Value Type: Percentage of structural elements: Turn
Reported Value: 22
--
Sequence Text: RRWWRRWWR [aR5W4]
Value Type: Percentage of structural elements: Turn
Reported Value: 30
--
Sequence Text: RWWWWRRRR [nR5W4]
Value Type: Percentage of structural elements: Turn
Reported Value: 32
--
Sequence Text: RRRWRRWRR [aR7W2]
Value Type: Percentage of structural elements: Turn
Reported Value: 37

The sequence RRWWRRWRR [aR6W3] showed Percentage of structural elements: Turn equal to 40
